Assignment: determine reported binding signal for the given sequences.
Target: GST-Nv-NF-kB (Ser allele) (Nematostella vectensis, UniProt A7UNT2 2-411)
Sequence: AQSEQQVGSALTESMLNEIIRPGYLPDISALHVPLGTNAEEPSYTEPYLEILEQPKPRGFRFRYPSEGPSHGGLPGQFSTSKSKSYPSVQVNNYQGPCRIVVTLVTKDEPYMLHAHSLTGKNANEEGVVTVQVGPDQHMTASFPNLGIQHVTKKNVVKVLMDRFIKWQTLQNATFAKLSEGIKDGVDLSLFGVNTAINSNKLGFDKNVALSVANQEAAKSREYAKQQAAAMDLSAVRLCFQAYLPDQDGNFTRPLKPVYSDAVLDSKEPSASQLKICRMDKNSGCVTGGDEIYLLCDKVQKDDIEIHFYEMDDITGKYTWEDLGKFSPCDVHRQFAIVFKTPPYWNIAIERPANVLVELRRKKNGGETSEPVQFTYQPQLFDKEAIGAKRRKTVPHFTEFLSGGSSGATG
Experiment: protein-binding microarray (PBM); PBM: ~300 nM protein, 6 mM HEPES pH 7.8, 80 mM KCl, 0.5 mM EDTA, 0.5 mM EGTA, 6% glycerol, 35 ng/ul poly-dIdC, 1% milk, 1 h, room temperature; high values mean tight binding
Details: dsDNA, one strand shown
Give your result in z-score as a bare value.

[ask] Return binding signal (reported value) for this sequence: "CCGATTAACATCAGGGGCTTCACTGATGTTAATCGGGTCTTGATTCGCTTGACGCTGCTG"
[reply] 2.69

[ask] Return binding signal (reported value) for this sequence: "CCGATTAACATCAGGGGATTTACTGATGTTAATCGGGTCTTGATTCGCTTGACGCTGCTG"
[reply] 10.4

[ask] Return binding signal (reported value) for this sequence: "CCGATTAACATCACGGAAAAAACTGATGTTAATCGGGTCTTGATTCGCTTGACGCTGCTG"
[reply] 1.13

[ask] Return binding signal (reported value) for this sequence: "CCGATTAACATCAAATTCCCATGTGATGTTAATCGGGTCTTGATTCGCTTGACGCTGCTG"
[reply] 4.15

[ask] Return binding signal (reported value) for this sequence: "CCGATTAACATCAAAAAACCACCTGATGTTAATCGGGTCTTGATTCGCTTGACGCTGCTG"
[reply] 7.1

[ask] Return binding signal (reported value) for this sequence: "CCGATTAACATCAATTCCCATCCTGATGTTAATCGGGTCTTGATTCGCTTGACGCTGCTG"
[reply] 2.59

[ask] Return binding signal (reported value) for this sequence: "CCGATTAACATCAAGATTTCCCCTGATGTTAATCGGGTCTTGATTCGCTTGACGCTGCTG"
[reply] 13.2

[ask] Return binding signal (reported value) for this sequence: "CCGATTAACATCAATAAATCCCCTGATGTTAATCGGGTCTTGATTCGCTTGACGCTGCTG"
[reply] 11.6

[ask] Return binding signal (reported value) for this sequence: "CCGATTAACATCAGGGGGATACATGATGTTAATCGGGTCTTGATTCGCTTGACGCTGCTG"
[reply] 5.54

[ask] Return binding signal (reported value) for this sequence: "CCGATTAACATCAGGGGGGGCAATGATGTTAATCGGGTCTTGATTCGCTTGACGCTGCTG"
[reply] 3.15

[ask] Return binding signal (reported value) for this sequence: "CCGATTAACATCAAACACCCCCTTGATGTTAATCGGGTCTTGATTCGCTTGACGCTGCTG"
[reply] 5.61

[ask] Return binding signal (reported value) for this sequence: "CCGATTAACATCAATGTGGGAAATGATGTTAATCGGGTCTTGATTCGCTTGACGCTGCTG"
[reply] 2.53

[ask] Return binding signal (reported value) for this sequence: "CCGATTAACATCAGCAAATCCCCTGATGTTAATCGGGTCTTGATTCGCTTGACGCTGCTG"
[reply] 9.83

[ask] Return binding signal (reported value) for this sequence: "CCGATTAACATCAAGGGGGGGACTGATGTTAATCGGGTCTTGATTCGCTTGACGCTGCTG"
[reply] 4.24

[ask] Return binding signal (reported value) for this sequence: "CCGATTAACATCAGGGGAATCCATGATGTTAATCGGGTCTTGATTCGCTTGACGCTGCTG"
[reply] 9.54

[ask] Return binding signal (reported value) for this sequence: "CCGATTAACATCAGAATTCTCCCTGATGTTAATCGGGTCTTGATTCGCTTGACGCTGCTG"
[reply] 3.64

[ask] Return binding signal (reported value) for this sequence: "CCGATTAACATCAAGGTGGGAATTGATGTTAATCGGGTCTTGATTCGCTTGACGCTGCTG"
[reply] 2.3

[ask] Return binding signal (reported value) for this sequence: "CCGATTAACATCAGAAAGTCCCCTGATGTTAATCGGGTCTTGATTCGCTTGACGCTGCTG"
[reply] 8.58

[ask] Return binding signal (reported value) for this sequence: "CCGATTAACATCAAAATTACCCCTGATGTTAATCGGGTCTTGATTCGCTTGACGCTGCTG"
[reply] 7.21

[ask] Return binding signal (reported value) for this sequence: "CCGATTAACATCAGTATTTCCCATGATGTTAATCGGGTCTTGATTCGCTTGACGCTGCTG"
[reply] 3.53

[ask] Return binding signal (reported value) for this sequence: "CCGATTAACATCACAAGTTCCCCTGATGTTAATCGGGTCTTGATTCGCTTGACGCTGCTG"
[reply] 8.61

[ask] Return binding signal (reported value) for this sequence: "CCGATTAACATCAAGGGGAATACTGATGTTAATCGGGTCTTGATTCGCTTGACGCTGCTG"
[reply] 8.56

[ask] Return binding signal (reported value) for this sequence: "CCGATTAACATCAATAGTACCGATGATGTTAATCGGGTCTTGATTCGCTTGACGCTGCTG"
[reply] 3

[ask] Return binding signal (reported value) for this sequence: "CCGATTAACATCAGGGAATTCTATGATGTTAATCGGGTCTTGATTCGCTTGACGCTGCTG"
[reply] 6.75

[ask] Return binding signal (reported value) for this sequence: "CCGATTAACATCAGGGGATTAAATGATGTTAATCGGGTCTTGATTCGCTTGACGCTGCTG"
[reply] 7.01

[ask] Return binding signal (reported value) for this sequence: "CCGATTAACATCAGGATTGTCCCTGATGTTAATCGGGTCTTGATTCGCTTGACGCTGCTG"
[reply] 2.92

[ask] Return binding signal (reported value) for this sequence: "CCGATTAACATCAGAGGATTCCCTGATGTTAATCGGGTCTTGATTCGCTTGACGCTGCTG"
[reply] 4.31

[ask] Return binding signal (reported value) for this sequence: "CCGATTAACATCAGAGAATCCCCTGATGTTAATCGGGTCTTGATTCGCTTGACGCTGCTG"
[reply] 10.9

[ask] Return binding signal (reported value) for this sequence: "CCGATTAACATCAGGCAAGCCCCTGATGTTAATCGGGTCTTGATTCGCTTGACGCTGCTG"
[reply] 1.38

[ask] Return binding signal (reported value) for this sequence: "CCGATTAACATCAGGGGGTATAATGATGTTAATCGGGTCTTGATTCGCTTGACGCTGCTG"
[reply] 4.36

[ask] Return binding signal (reported value) for this sequence: "CCGATTAACATCAGGGGATAATATGATGTTAATCGGGTCTTGATTCGCTTGACGCTGCTG"
[reply] 7.02

[ask] Return binding signal (reported value) for this sequence: "CCGATTAACATCAGGCGTTTCCCTGATGTTAATCGGGTCTTGATTCGCTTGACGCTGCTG"
[reply] 2.59

[ask] Return binding signal (reported value) for this sequence: "CCGATTAACATCAGTATTCCCCATGATGTTAATCGGGTCTTGATTCGCTTGACGCTGCTG"
[reply] 6.79

[ask] Return binding signal (reported value) for this sequence: "CCGATTAACATCACCCATTTCCCTGATGTTAATCGGGTCTTGATTCGCTTGACGCTGCTG"
[reply] 3.99

[ask] Return binding signal (reported value) for this sequence: "CCGATTAACATCAAAGTTCCCCCTGATGTTAATCGGGTCTTGATTCGCTTGACGCTGCTG"
[reply] 9.29

[ask] Return binding signal (reported value) for this sequence: "CCGATTAACATCAAGGGGGGTATTGATGTTAATCGGGTCTTGATTCGCTTGACGCTGCTG"
[reply] 3.99

###

Target: GST-Ap-NF-kB RHD (Exaiptasia pallida (Aiptasia), UniProt A0A913YAJ5 2-422)
Sequence: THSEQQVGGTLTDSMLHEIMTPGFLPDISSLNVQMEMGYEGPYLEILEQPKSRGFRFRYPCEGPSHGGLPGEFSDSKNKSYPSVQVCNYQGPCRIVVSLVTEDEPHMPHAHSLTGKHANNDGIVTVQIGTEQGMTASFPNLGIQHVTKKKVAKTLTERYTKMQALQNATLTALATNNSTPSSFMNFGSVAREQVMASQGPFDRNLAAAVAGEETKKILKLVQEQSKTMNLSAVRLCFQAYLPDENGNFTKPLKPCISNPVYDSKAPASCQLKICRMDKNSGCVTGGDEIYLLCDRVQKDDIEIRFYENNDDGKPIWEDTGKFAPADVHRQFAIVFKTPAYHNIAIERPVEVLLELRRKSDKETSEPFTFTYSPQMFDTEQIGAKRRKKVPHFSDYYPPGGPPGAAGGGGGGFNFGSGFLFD
Experiment: protein-binding microarray (PBM); PBM: ~300 nM protein, 6 mM HEPES pH 7.8, 80 mM KCl, 0.5 mM EDTA, 0.5 mM EGTA, 6% glycerol, 35 ng/ul poly-dIdC, 1% milk, 1 h, room temperature; Ap Aiptasia and Nv Nematostella (sea anemones) / Co Capsaspora / Aq Amphimedon (sponge) / Dm Drosophila / Hu human; RHD is the Rel homology domain; high values mean tight binding
Conditions: dsDNA, one strand shown
Each entry falls in a class defined on binding signal; the bands are interval 1 = under 3 z-score, interval 2 = from 3 z-score up to 6 z-score, interval 3 = 6 z-score and over

[ask] Class? Entry: "CCGATTAACATCAGGACCTTCCCTGATGTTAATCGGGTCTTGATTCGCTTGACGCTGCTG"
[reply] interval 1

[ask] Class? Entry: "CCGATTAACATCAGGACGTCCCCTGATGTTAATCGGGTCTTGATTCGCTTGACGCTGCTG"
[reply] interval 3

[ask] Class? Entry: "CCGATTAACATCAAGGGAAACCCTGATGTTAATCGGGTCTTGATTCGCTTGACGCTGCTG"
[reply] interval 2

[ask] Class? Entry: "CCGATTAACATCAATAATTCCCCTGATGTTAATCGGGTCTTGATTCGCTTGACGCTGCTG"
[reply] interval 3

[ask] Class? Entry: "CCGATTAACATCACCCCATCTCGTGATGTTAATCGGGTCTTGATTCGCTTGACGCTGCTG"
[reply] interval 1

[ask] Class? Entry: "CCGATTAACATCAGGGGGACAAATGATGTTAATCGGGTCTTGATTCGCTTGACGCTGCTG"
[reply] interval 2

[ask] Class? Entry: "CCGATTAACATCAATAGTACCGATGATGTTAATCGGGTCTTGATTCGCTTGACGCTGCTG"
[reply] interval 1

[ask] Class? Entry: "CCGATTAACATCATAATTCCCAATGATGTTAATCGGGTCTTGATTCGCTTGACGCTGCTG"
[reply] interval 1

[ask] Class? Entry: "CCGATTAACATCACGGAGATCCCTGATGTTAATCGGGTCTTGATTCGCTTGACGCTGCTG"
[reply] interval 1

[ask] Class? Entry: "CCGATTAACATCAAATTCCCTCGTGATGTTAATCGGGTCTTGATTCGCTTGACGCTGCTG"
[reply] interval 2

[ask] Class? Entry: "CCGATTAACATCACCCTTTTCCCTGATGTTAATCGGGTCTTGATTCGCTTGACGCTGCTG"
[reply] interval 1

[ask] Class? Entry: "CCGATTAACATCAGGAGACTCCCTGATGTTAATCGGGTCTTGATTCGCTTGACGCTGCTG"
[reply] interval 1

[ask] Class? Entry: "CCGATTAACATCAGGGACTTTAATGATGTTAATCGGGTCTTGATTCGCTTGACGCTGCTG"
[reply] interval 2

[ask] Class? Entry: "CCGATTAACATCAGGGGACATTATGATGTTAATCGGGTCTTGATTCGCTTGACGCTGCTG"
[reply] interval 2

[ask] Class? Entry: "CCGATTAACATCAGGGGAAACACTGATGTTAATCGGGTCTTGATTCGCTTGACGCTGCTG"
[reply] interval 3

[ask] Class? Entry: "CCGATTAACATCAGGGGATGTTATGATGTTAATCGGGTCTTGATTCGCTTGACGCTGCTG"
[reply] interval 2

[ask] Class? Entry: "CCGATTAACATCACGGGGATTCCTGATGTTAATCGGGTCTTGATTCGCTTGACGCTGCTG"
[reply] interval 3

Data origin: paper PMC5700166
